- TGT: A₂ receptor (Rattus norvegicus, UniProt P30543)
- Construct: from tissue; host or cells: rat corpus striatum membrane preparation
- Sequence (P30543 whole entry): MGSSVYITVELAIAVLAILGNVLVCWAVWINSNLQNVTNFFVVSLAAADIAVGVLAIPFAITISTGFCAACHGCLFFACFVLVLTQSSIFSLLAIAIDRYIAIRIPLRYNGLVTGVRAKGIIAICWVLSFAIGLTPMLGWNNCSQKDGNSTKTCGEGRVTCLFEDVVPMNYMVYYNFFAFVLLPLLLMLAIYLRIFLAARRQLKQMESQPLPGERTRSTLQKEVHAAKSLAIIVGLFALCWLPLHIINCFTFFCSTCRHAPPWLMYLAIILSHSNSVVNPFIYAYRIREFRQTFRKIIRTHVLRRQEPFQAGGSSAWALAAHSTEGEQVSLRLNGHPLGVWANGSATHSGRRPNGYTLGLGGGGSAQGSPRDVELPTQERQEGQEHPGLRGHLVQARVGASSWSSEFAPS
- PROTOCOL DESCRIPTION: Adenosine A₂ receptor binding test (³H-NECA binding)
- ASSAY CONTEXT: read-out: Inhibition (%) A₂ Receptor
For each record, write down the corresponding inhibition at 10 µM.
Just the number please, in %, no unit attached.

Request: Please give the documented inhibition at 10 µM of CCn1c(=O)c2c(nc(/C=C/c3ccc(OC)c(C)c3C)n2C)n(CC)c1=O [Compound 10]
Response: 90

Request: Identify inhibition at 10 µM associated with the compound CCn1c(=O)c2c(nc(/C=C/c3cccc(OC)c3OC)n2C)n(CC)c1=O [Compound 4]
Response: 88

Request: Identify measured inhibition at 10 µM associated with CCn1c(=O)c2c(nc(/C=C/c3ccc4c(c3)OCO4)n2C)n(CC)c1=O [Compound 16]
Response: 88

Request: Give the reported inhibition at 10 µM for this compound. COc1ccc(/C=C/c2nc3c([nH]2)c(=O)n(C)c(=O)n3C)c(OC)c1OC [Compound 19]
Response: 92

---

- Tested on: Haloperidol-Induced Catalepsy
- PROTOCOL DESCRIPTION: Effect on haloperidol-induced catalepsy
- Type: in vivo, mice
- ASSAY CONTEXT: of five mice, catalepsy score not more than 4 points; 10 mg/kg orally
PROPERTY LABEL: Number of the Animals Showing Remission

Request: Specify Number of the Animals Showing Remission for CCn1c(=O)c2c(nc(/C=C/c3ccc(OC)c(C)c3OC)n2C)n(CC)c1=O and stop.
Response: 5

Request: Output Number of the Animals Showing Remission of COc1ccc(/C=C/c2nc3c(c(=O)n(C)c(=O)n3C)n2C)c(OC)c1C
Response: 4

Request: For CCn1c(=O)c2c(nc(/C=C/c3ccc(OC)c(OC)c3)n2C)n(CC)c1=O , write its Number of the Animals Showing Remission.
Response: 5

Request: Give recorded Number of the Animals Showing Remission. CCn1c(=O)c2c(nc(/C=C/c3cccc(Cl)c3)n2C)n(CC)c1=O
Response: 4

Request: Assign Number of the Animals Showing Remission to the following record: COc1ccc(/C=C/c2nc3c(c(=O)n(C)c(=O)n3C)n2C)c(OC)c1OC [Compound 20, (E)-8-(2,3,4-Trimethoxystyryl)caffeine]
Response: 5

Request: Please report Number of the Animals Showing Remission for the following compound: COc1ccc(/C=C/c2nc3c(c(=O)n(C)c(=O)n3C)n2C)c(C)c1C
Response: 3

Request: Item CCn1c(=O)c2c(nc(/C=C/c3cccc(Br)c3)n2C)n(CC)c1=O : provide Number of the Animals Showing Remission
Response: 4

Request: State, in one line, measured Number of the Animals Showing Remission of CCn1c(=O)c2c(nc(/C=C/c3ccc(OC)c(OC)c3Cl)n2C)n(CC)c1=O
Response: 4

Request: Could you please provide reported Number of the Animals Showing Remission for CCn1c(=O)c2c(nc(/C=C/c3cc(OC)cc(OC)c3)n2C)n(CC)c1=O ? Thanks!
Response: 5

Request: Return Number of the Animals Showing Remission (reported value) for this compound: CCn1c(=O)c2c(nc(/C=C/c3ccc(OC)c(Br)c3)n2C)n(CC)c1=O
Response: 5

Request: // fetch Number of the Animals Showing Remission given entry CCn1c(=O)c2c(nc(/C=C/c3ccc(O)cc3)n2C)n(CC)c1=O
Response: 5

Request: Give the reported Number of the Animals Showing Remission for this compound. CCn1c(=O)c2c(nc(/C=C/c3cccc(OC)c3)n2C)n(CC)c1=O
Response: 5

Request: Determine its reported Number of the Animals Showing Remission: CCCOc1ccc(/C=C/c2nc3c(c(=O)n(CC)c(=O)n3CC)n2C)cc1
Response: 4

Request: Give me measured Number of the Animals Showing Remission, please, for this compound: CCOc1ccc(/C=C/c2nc3c(c(=O)n(CC)c(=O)n3CC)n2C)cc1
Response: 5

Request: Please indicate Number of the Animals Showing Remission recorded for CCn1c(=O)c2c(nc(/C=C/c3cc(C)ccc3C)n2C)n(CC)c1=O
Response: 5

Request: Specify reported Number of the Animals Showing Remission for the compound shown: CCn1c(=O)c2c(nc(/C=C/c3cccc([N+](=O)[O-])c3)n2C)n(CC)c1=O
Response: 4

Request: For CCn1c(=O)c2c(nc(/C=C/c3cccc(F)c3C)n2C)n(CC)c1=O , write its Number of the Animals Showing Remission.
Response: 5

Request: Give the reported value of Number of the Animals Showing Remission for this record: CCn1c(=O)c2c(nc(/C=C/c3ccc(OC)c(F)c3)n2C)n(CC)c1=O
Response: 3

Request: Input COc1ccc(/C=C/c2nc3c([nH]2)c(=O)n(C)c(=O)n3C)c(C)c1C , output reported Number of the Animals Showing Remission.
Response: 4

Request: Item CCn1c(=O)c2c(nc(/C=C/c3ccc(OCOC)cc3)n2C)n(CC)c1=O : provide Number of the Animals Showing Remission
Response: 5
